B1: glmS ribozyme (parent)
chain: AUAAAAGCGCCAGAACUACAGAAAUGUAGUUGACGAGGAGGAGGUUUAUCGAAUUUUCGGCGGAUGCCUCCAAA

# Variants of: B1
# experiment-summary: KM; higher = weaker cofactor use; RNA array
# experimental-context: with glucosamine-6-phosphate
reported-metric: KM (µM)

[[record]]
residue_codes = "AUAAAAGCGCCAGAACUACAGAAAUGUAGUUGACGAGGUGGAGGUUGAUCGAAUUUUCGGCGGAUGCCUCCAAA [A39U U47G]"
measurement_units = "µM"
test_result = 1940

[[record]]
residue_codes = "AUAAAAGCGCCAGAACUACAGAAAUGUAGUUGACGAGGAGGAGGUUUAUAGCAUUUUCGGCGGAUGCCUCCAAA [C50A A52C]"
measurement_units = "µM"
test_result = 2730

[[record]]
residue_codes = "AUAAAAGCGCCAGAACUACAGAAAUGUAGUUGACGAGGAGGAGGUUCAUCGAAGUUUCGGCGGAUGCCUCCAAA [U47C U54G]"
measurement_units = "µM"
test_result = 1210

[[record]]
residue_codes = "AUAAAAGCGCCAGACCUACAGAAAUGUAGUUGACGAGGAGGAGGUUUAUCGUAUUUUCGGCGGAUGCCUCCAAA [A15C A52U]"
measurement_units = "µM"
test_result = 1830

[[record]]
residue_codes = "AUAAAAGCGCCAGAACUACAGAAAUGUAGUUGACGAGGAGGAGGUUUAUCGACUGUUCGGCGGAUGCCUCCAAA [A53C U55G]"
measurement_units = "µM"
test_result = 1640

[[record]]
residue_codes = "AUAAAAGCGCCAGCACUACAGAAAUGUAGUUGUCGAGGAGGAGGUUUAUCGAAUUUUCGGCGGAUGCCUCCAAA [A14C A33U]"
measurement_units = "µM"
test_result = 994

[[record]]
residue_codes = "AUAAAAGCGCCAGAACUACAGAAAUGUAGUUGACGAGGAGGAGGUUUAUCGAAUUUUCGGCGGAUGUCUCCAAA [C67U]"
measurement_units = "µM"
test_result = 1910

[[record]]
residue_codes = "AUAAAAGCGCCUGAACUACAGAAAUGUAGUUGUCGAGGAGGAGGUUUAUCGAAUUUUCGGCGGAUGUCUCCAAA [A12U A33U C67U]"
measurement_units = "µM"
test_result = 6520

[[record]]
residue_codes = "AUAAAAGCGCCAGAACUACAGAAAUGUAGUUCACGAGGAGGAGGUUUAUCGAAGUUUCGGCGGAUGCCUCCAAA [G32C U54G]"
measurement_units = "µM"
test_result = 2550

[[record]]
residue_codes = "AUAAAAGCGCCAGAACUACAGAAAUGUAUUUGACGAGGAGGAGGUUUAUCGAAUUUUCGGCGGAUUCCUCCAAA [G29U G66U]"
measurement_units = "µM"
test_result = 1300

[[record]]
residue_codes = "AUAAAAGCGCCAGGACUACAGAAAUGUAGUUGACGAAGAGGAGGUUUAUCGAAUUUUCGGCGGAUGCCUCCAAA [A14G G37A]"
measurement_units = "µM"
test_result = 3890

